Hi there, I'd appreciate the recorded Inhibition for every entry that follows.
test system: Klebsiella pneumoniae; conditions: Concentration 20 uM; ASSAY_TEST Inhibition of Bacterial Growth; detection method Absorption (OD600); MEDIA CAMHB; plate type 384well; NBS; CORNING #3640; time 18 hr
Description: Antibacterial activity against Klebsiella pneumoniae MDR ATCC 70063 (CO-ADD:GN_003); MIC in CAMBH media using NBS plates, by OD(600)
Potency and affinity values are given separately.
Field: numeric (%). Do not append units.

Item CCCN[C@H]1CCc2nc(N)sc2C1 [PRAMIPEXOLE] has what recorded Inhibition?
5.86

# Inhibition lookup, item CNCCCC12CCC(c3ccccc31)c1ccccc12.Cl [MAPROTILINE HYDROCHLORIDE]
10.44

Value lookup for Inhibition; key = CCN(Cc1ccncc1)C(=O)C(CO)c1ccccc1 (stereo not drawn) [TROPICAMIDE]
7.31

Suppose we examine the compound CN(C)CCC(c1ccc(Cl)cc1)c1ccccn1.O=C(O)/C=C\C(=O)O (stereo not drawn) [CHLORPHENIRAMINE MALEATE] ; what Inhibition value has been reported?
2.46

# lookup: Inhibition of Cl.Clc1cccc(Cl)c1NC1=NCCN1 [CLONIDINE HYDROCHLORIDE]
4.94

Fill in: Inhibition of `COC(=O)C1=C(C)NC(C)=C(C(=O)O[C@@H]2CCCN(Cc3ccccc3)C2)[C@@H]1c1cccc([N+](=O)[O-])c1.Cl` is ___
-2.17

// returns reported Inhibition for input `CC(C)c1ccc2c(c1)c(SC(C)(C)C)c(CC(C)(C)C(=O)O)n2Cc1ccc(Cl)cc1`
11.6

Item under review: COCC1=C(C(=O)OC(C)OC(=O)OC(C)C)N2C(=O)[C@@H](NC(=O)/C(=N\OC)c3csc(N)n3)[C@H]2SC1 (stereo partly drawn) . Reported Inhibition?
5.41

Suppose we examine the compound `C#C[C@]1(O)CC[C@H]2[C@@H]3CCC4=CC(=O)CC[C@@H]4[C@H]3CC[C@@]21CC` ; what Inhibition value has been reported?
13.61

So what's the measured Inhibition for this one? Cc1nccn1CC1CCc2c(c3ccccc3n2C)C1=O (stereo not drawn)
11.11

Endpoint output: Inhibition of COc1cc(N)c(Cl)cc1C(=O)N[C@@H]1CCN(CCCOc2ccc(F)cc2)C[C@@H]1OC.O [(R,S)-CISAPRIDE MONOHYDRATE] . Value?
7.83

Consider the compound `CS(=O)(=O)c1ccc(-c2cc(Br)sc2-c2ccc(F)cc2)cc1` and give its measured Inhibition.
2.25

Quick check: Inhibition of `CCCCc1nc(Cl)c(CO)n1Cc1ccc(-c2ccccc2-c2nnn[n-]2)cc1.[K+]` ?
7.23

Using the record for CC(C)(C)NC(=O)[C@H]1CC[C@H]2[C@@H]3CC[C@H]4NC(=O)C=C[C@]4(C)[C@H]3CC[C@]12C [FINASTERIDE] , report its Inhibition.
-7.24

Entry `NNC(=O)c1ccncc1` : reported Inhibition = ?
6.54

What does the data say about its Inhibition? Entry: Cl.NC12CC3CC(CC(C3)C1)C2 [AMANTADINE HYDROCHLORIDE]
13.94

Given the entry `O=C(O)CCc1nc(-c2ccccc2)c(-c2ccccc2)o1` , report its measured Inhibition.
16.28

Request the reported Inhibition associated with COc1ccc(C2CNC(=O)C2)cc1OC1CCCC1 (stereo not drawn)
19.56
